Ref: ChEMBL document CHEMBL4706547

assay: Solubility of compound; type: physicochemical
test-readout: solubility (µM)
Numbers only; they are read as µM.

Consider the compound shown here: O=C1c2cc(F)ccc2C(=O)c2c1nnn2-c1ccc(F)c(Cl)c1 What is its recorded solubility?
0.16

====

target: Tryptophan 2,3-dioxygenase (Homo sapiens, UniProt P48775); test: Inhibition of TDO (unknown origin) assessed as reduction in L-kynurenine formation using L-tryptophan as substrate incubated for 30 mins microplate spectrophotometry analysis
Sequence (P48775 whole entry): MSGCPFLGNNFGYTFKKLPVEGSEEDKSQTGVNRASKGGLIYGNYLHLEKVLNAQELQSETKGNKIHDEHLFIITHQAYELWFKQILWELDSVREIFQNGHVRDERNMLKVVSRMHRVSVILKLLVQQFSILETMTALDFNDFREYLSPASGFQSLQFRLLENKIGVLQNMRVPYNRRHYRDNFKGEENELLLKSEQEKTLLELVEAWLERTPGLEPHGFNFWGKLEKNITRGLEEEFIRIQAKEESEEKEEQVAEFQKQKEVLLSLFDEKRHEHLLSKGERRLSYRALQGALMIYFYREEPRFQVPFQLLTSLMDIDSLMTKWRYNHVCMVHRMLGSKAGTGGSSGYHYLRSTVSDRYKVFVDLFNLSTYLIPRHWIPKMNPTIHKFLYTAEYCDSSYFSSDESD
test-readout: pIC50
When answering, recall that pIC50 equals minus log10 of the concentration in mol/L, and write that number alone.

smiles-input | pIC50
O=C1c2cc(F)ccc2C(=O)c2c1nnn2-c1ccc(F)c(Cl)c1 | 8.40

# next compound below
Given O=C1c2ccccc2C(=O)c2c1nnn2-c1cnc(Cl)c(Cl)c1 , state its recorded pIC50.
6.61

====

biological target: Indoleamine 2,3-dioxygenase 1 (Homo sapiens); test: Inhibition of IDO1 in IFN-gamma-induced human HeLa cells assessed as reduction in L-kynurenine formation using L-tryptophan as substrate incubated for 24 hrs
test-readout: pIC50
Value format note: pIC50 is -log10 of concentration (mol/L); just state the number.

Give pIC50 (Indoleamine 2,3-dioxygenase 1 (Homo sapiens)) of the following molecule: O=C1c2cc(F)ccc2C(=O)c2c1nnn2-c1ccc(F)c(Cl)c1
7.01

====

biological target: Tryptophan 2,3-dioxygenase (Homo sapiens); assay: Inhibition of TDO (unknown origin) assessed as reduction in L-kynurenine formation using L-tryptophan as substrate incubated for 30 mins microplate spectrophotometry analysis
test-readout: pIC50
Just so you know, pIC50 here is -log10 of the concentration in molar units; reply with that number alone.

Example entries begin here.
smiles-input | test-readout | reported
O=C1c2ccccc2C(=O)c2c1nnn2Cc1ccccc1 | pIC50 | 6.07
O=C1c2ccccc2C(=O)c2c1nnn2-c1ccc(C(F)(F)F)c(Cl)c1 | pIC50 | 7.60
O=C1c2ccccc2C(=O)c2c1nnn2-c1ccc(F)c(Cl)c1 | pIC50 | 7.85
O=C1c2ccccc2C(=O)c2c1nnn2-c1ccc(Cl)cc1 | pIC50 | 7.82

Entry under review: O=C1c2ccccc2C(=O)c2c1nnn2-c1cccnc1 . Reported pIC50?
7.68

Another compound to check: Cc1cccc(-n2nnc3c2C(=O)c2ccccc2C3=O)c1
7.19

Request: O=C1c2ccccc2C(=O)c2c1nnn2-c1ccc(Cl)nc1
7.60

What do you get for O=C1c2ccccc2C(=O)c2c1nnn2-c1ccc2[nH]ncc2c1 ?
7.38

Same for O=C(O)c1cccc(-n2nnc3c2C(=O)c2ccccc2C3=O)c1
7.15

Query O=C1c2ccccc2C(=O)c2c1nnn2-c1ccc2ccncc2c1 next
7.47

How about O=C1c2ccccc2C(=O)c2c1nnn2-c1cccc([N+](=O)[O-])c1 ?
7.55

====

target: Tryptophan 2,3-dioxygenase (Homo sapiens, UniProt P48775); assay: Inhibition of TDO in human A 172 cells assessed as reduction in L-kynurenine formation using L-tryptophan as substrate incubated for 24 hrs; format: cell-based
test-readout: IC50 (nM)
Please respond with the number in nM and leave the unit unwritten.

Return reported IC50; argument: O=C1c2cc(F)ccc2C(=O)c2c1nnn2-c1ccc(F)c(Cl)c1
59

====

molecular target: Indoleamine 2,3-dioxygenase 1 (Homo sapiens, UniProt P14902)
Sequence (P14902 whole entry): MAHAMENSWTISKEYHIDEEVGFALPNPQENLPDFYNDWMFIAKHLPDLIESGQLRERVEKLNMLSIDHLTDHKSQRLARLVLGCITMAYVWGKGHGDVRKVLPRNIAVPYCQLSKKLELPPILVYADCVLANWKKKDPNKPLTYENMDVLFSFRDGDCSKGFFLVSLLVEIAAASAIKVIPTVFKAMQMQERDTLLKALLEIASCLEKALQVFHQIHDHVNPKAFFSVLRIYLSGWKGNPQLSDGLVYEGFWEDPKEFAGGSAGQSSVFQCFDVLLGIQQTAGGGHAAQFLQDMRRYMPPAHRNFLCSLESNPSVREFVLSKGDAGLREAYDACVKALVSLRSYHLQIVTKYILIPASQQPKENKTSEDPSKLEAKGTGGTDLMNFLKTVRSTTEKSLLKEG
# key: entry, value: IC50
Use µM as the unit, but write only the number.

Solved cases below.
smiles-input | target-of-assay | reported
O=C1c2ccccc2C(=O)c2c1nnn2-c1ccc(Cl)cc1 | Indoleamine 2,3-dioxygenase 1 (Homo sapiens, UniProt P14902) | 0.023
O=C1c2ccccc2C(=O)c2c1nnn2-c1ccc(Cl)c(F)c1 | Indoleamine 2,3-dioxygenase 1 (Homo sapiens, UniProt P14902) | 0.02
CC(=O)Nc1cccc(-n2nnc3c2C(=O)c2ccccc2C3=O)c1 | Indoleamine 2,3-dioxygenase 1 (Homo sapiens, UniProt P14902) | 0.081

Endpoint output: IC50 of O=C1c2ccccc2C(=O)c2c1nnn2-c1ccc(C(F)(F)F)c(Cl)c1 . Value?
0.03

How about this compound: O=C1c2ccccc2C(=O)c2c1nnn2-c1cc(Cl)c(F)c(Cl)c1
0.033

Another compound to check: CN1CCN(C(=O)c2cccc(Cn3nnc4c3C(=O)c3ccccc3C4=O)c2)CC1
0.658
